# Test Protocol: AUC in Sprague-Dawley rat at 10 mg/kg, po by LC-MS analysis
# Type: ADME, organism-based, Plasma
# Parameters: dose 10 mg/kg, route oral
# Recorded Conditions: Sprague-Dawley, plasma
Experimental Readout: AUC (ng·h/mL)

>>> value("N#Cc1ccc(-c2ccc3c(c2)OC[C@H]2[C@H](COP(=O)([O-])[O-])OC(=O)N32)cn1.[Na+].[Na+]")
81.1
>>> value("CN1C[C@@H](c2ccc(-c3ccc4c(c3)OC[C@H]3[C@H](COP(=O)([O-])[O-])OC(=O)N43)cn2)OC1=O.[Na+].[Na+]")
1660
>>> value("CN1C[C@@H](c2ccc(-c3ccc4c(c3)OC[C@H]3[C@H](COP(=O)(O)O)OC(=O)N43)cn2)OC1=O.N=C(N)NCCC[C@H](N)C(=O)O.N=C(N)NCCC[C@H](N)C(=O)O")
523

---

# Test Protocol: AUC in Sprague-Dawley rat at 5 mg/kg, iv by LC-MS analysis
# Assay type: ADME, organism-based
# Set-up: dose 5 mg/kg, route intravenous
# Recorded Conditions: plasma
Experimental Readout: AUC (ng·h/mL)

>>> value("CN1C[C@@H](c2ccc(-c3ccc4c(c3)OC[C@H]3[C@H](CO)OC(=O)N43)cn2)OC1=O")
1560

---

Entries and their bioavailability values follow.
# Test Protocol: Oral bioavailability in Sprague-Dawley rat at 10 mg/kg
# Format: ADME, organism-based
# Recorded Conditions: Sprague-Dawley, in vivo
Experimental Readout: bioavailability (%)

>>> value("CN1C[C@@H](c2ccc(-c3ccc4c(c3)OC[C@H]3[C@H](COP(=O)([O-])[O-])OC(=O)N43)cn2)OC1=O.[Na+].[Na+]")
52.5
>>> value("CN1C[C@@H](c2ccc(-c3ccc4c(c3)OC[C@H]3[C@H](COP(=O)(O)O)OC(=O)N43)cn2)OC1=O.N=C(N)NCCC[C@H](N)C(=O)O.N=C(N)NCCC[C@H](N)C(=O)O")
34.8

---

# Test Protocol: Tmax in Sprague-Dawley rat at 10 mg/kg, po by LC-MS analysis
# Type: ADME, organism-based
# Parameters: dose 10 mg/kg, route oral
# Recorded Conditions: in vivo
Experimental Readout: Tmax (min)

>>> value("CN1C[C@@H](c2ccc(-c3ccc4c(c3)OC[C@H]3[C@H](COP(=O)([O-])[O-])OC(=O)N43)cn2)OC1=O.[Na+].[Na+]")
26.4
>>> value("N#Cc1ccc(-c2ccc3c(c2)OC[C@H]2[C@H](COP(=O)([O-])[O-])OC(=O)N32)cn1.[Na+].[Na+]")
78.6
>>> value("CN1C[C@@H](c2ccc(-c3ccc4c(c3)OC[C@H]3[C@H](COP(=O)(O)O)OC(=O)N43)cn2)OC1=O.N=C(N)NCCC[C@H](N)C(=O)O.N=C(N)NCCC[C@H](N)C(=O)O")
22.8
>>> value("O=C1OC(CO)CN1c1ccc(-c2ccc3c(c2)OC[C@H]2[C@H](CO)OC(=O)N32)cn1 (some centres undefined)")
22.8

---

# Test Protocol: AUC in Sprague-Dawley rat at 10 mg/kg, iv by LC-MS analysis
# Format: ADME, organism-based
# Set-up: dose 10 mg/kg, route intravenous
# Recorded Conditions: plasma
Experimental Readout: AUC (ng·h/mL)

>>> value("O=C1OC(COP(=O)([O-])[O-])CN1c1ccc(-c2ccc3c(c2)OC[C@H]2[C@H](CO)OC(=O)N32)cn1.[Na+].[Na+] (some centres undefined)")
4000
>>> value("CN1C[C@@H](c2ccc(-c3ccc4c(c3)OC[C@H]3[C@H](COP(=O)(O)O)OC(=O)N43)cn2)OC1=O.N=C(N)NCCC[C@H](N)C(=O)O.N=C(N)NCCC[C@H](N)C(=O)O")
1440
>>> value("N=C(N)NCCC[C@H](N)C(=O)O.N=C(N)NCCC[C@H](N)C(=O)O.O=C1OC(COP(=O)(O)O)CN1c1ccc(-c2ccc3c(c2)OC[C@H]2[C@H](CO)OC(=O)N32)cn1 (some centres undefined)")
1800
>>> value("CN1C[C@@H](c2ccc(-c3ccc4c(c3)OC[C@H]3[C@H](COP(=O)([O-])[O-])OC(=O)N43)cn2)OC1=O.[Na+].[Na+]")
3160

Origin of measurements: ChEMBL document CHEMBL2321795
